tested on: ACHN renal; assay: NCI tumour cell line growth inhibition, 48 h
Entries and their TGI

- COC(=N)C(C)C: > 100 µM
- COc1c(Nc2ncc(Cl)c(N[C@@H]3[C@H]4C=CC(C4)[C@@H]3C(N)=O)n2)ccc2c1CC[C@@H](N1CCOCC1)CC2: 24.3 µM
- CC(=O)O[C@@]12[C@@H]3O[C@@]4(O)C[C@]5(C)[C@H]6C[C@@](C(C)C)(O[C@H]5c5ccoc5)O[C@H]1[C@]6(C4)O[C@]2(O)C(C)=CC3(C)C: > 100 µM
- Cc1cc(O)c2c(c1O)C(=O)c1c(O)ccc(O)c1C2=O: > 100 µM
- CC(=O)N(/N=C\c1ccc([N+](=O)[O-])cc1)c1ccccc1: > 100 µM
- Oc1c(Cl)cc(C(c2cc(Cl)c(O)c(Cl)c2)C(c2cc(Cl)c(O)c(Cl)c2)c2cc(Cl)c(O)c(Cl)c2)cc1Cl: 20.3 µM
- CCOC(=O)c1ccc(-c2cccs2)n1C: > 100 µM
- CN(C)C/C=C(/c1ccc(Br)cc1)c1cccnc1: > 100 µM
- Nc1ccc(S(=O)(=O)Nc2nc3ccccc3nc2Nc2ccc(S(N)(=O)=O)cc2)cc1: > 100 µM
- CCOP(=O)(OCC)/C(=C/c1ccccc1)CC(C)=O: > 100 µM

query: Request the reported TGI associated with CC12Oc3ccc4ccccc4c3C1c1c(ccc3ccccc13)O2 (stereo not given)
result: > 100 µM

query: Request the reported TGI associated with CCOC(=O)c1c(N2CCOCC2)[nH]c(=O)c(C(c2c(O)c(C(=O)OCC)c(N3CCOCC3)[nH]c2=O)C(C)C)c1O
result: > 100 µM

query: Request the reported TGI associated with CC(=O)c1cc2c3c(c1)c1cc4c(cc1c(=O)n3CC2)OCO4
result: > 100 µM

query: Request the reported TGI associated with COc1cc(O)c2c(=O)c3ccccc3n(C)c2c1
result: > 100 µM

// provenance: PubChem BioAssay (NCI)
